Each recorded value in this set is attributed to paper PMC11232401.

- ASSAY_TEXT: In vitro metabolic stability assay in microsomes
- Type: in vitro ADME
- CONDITIONS_USED: male, Sprague Dawley, pH 7.4; rat liver microsomes; read-out: Degradation half-life
QUANTITY_NAME: half-life at 1 µM (min)
Kindly provide the numeric value in min only, without the unit symbol.

# example entries with known answers
CC1CCC2C(C)C(OC(=O)CCC(=O)OCCNc3ccnc4cc(Cl)ccc34)OC3OC4(C)CCC1C32OO4 (stereo not drawn) = 5
C[C@H]1[C@H](OC(=O)CCC(=O)O)O[C@@H]2O[C@@]3(C)CC[C@H]4[C@H](C)CC[C@@H]1[C@@]24OO3 [Artesunate, artesunate, reference compound] = 4

In the following, a different compound is considered.
Incoming: Please give the measured half-life at 1 µM for this compound: COCCOCCOCCOCCn1c(-c2ccc(-n3cc(-c4ccc(OC5OC6OC7(C)CCC8C(C)CCC(C5C)C68OO7)cc4)nn3)cc2)nc2ccccc21 (stereo not drawn)
Outgoing: 9
